test: Metabolic stability in human hepatic microsome; assay type: in vitro ADME; conditions: microsomes, pH 7.4; human hepatic microsome, NADPH(+); read-out: CL NADPH(+)
Starred links: 1 amine or outer side, 2 acyl side, 3 side chain; linkers in the order of their positions; H or OH if unused. Positions of bridges follow the written chain, without caps; N, C: chain ends. Non-standard residues stand in square brackets, D forms with d. Residues, ends and D or L forms follow the SMILES beside them. *: point of attachment. NEtPhe = CCN[C@@H](Cc1ccccc1)C(=O)O; NMeF = CN[C@@H](Cc1ccccc1)C(=O)O; NMeI = CC[C@H](C)[C@H](NC)C(=O)O; NMeβAla = CN(CCC(=O)[*:2])[*:1]; NMeL = CN[C@@H](CC(C)C)C(=O)O; NMeA = CN[C@@H](C)C(=O)O; Piperidide = C1CCN(*)CC1; Sar = CNCC(=O)O
Measure: microsomal CLint at 1 uM (µL/min/mg)
Report as a plain number; the unit µL/min/mg is understood.

Guide cases for microsomal CLint at 1 uM, answers given:
{"columns": ["Compound", "Measure", "Measured Number"],
 "data": [
  ["CC[C@H](C)[C@H]1C(=O)N(C)[C@@H](CC(C)C)C(=O)N[C@H](C(=O)N2CCCCC2)CC(=O)N(C)CC(=O)N[C@@H](CC(C)C)C(=O)N[C@@H]([C@@H](C)O)C(=O)N(C)CC(=O)N(CC)[C@@H](Cc2ccccc2)C(=O)N[C@@H](C)C(=O)N(C)[C@@H](Cc2ccccc2)C(=O)N(C)[C@@H](CC(C)C)C(=O)N1C [DP-546] ([Sar]LT[Sar][NEtPhe]A[NMeF][NMeL][NMeI][NMeL]D-Piperidide; lactam N-11)", "microsomal CLint at 1 uM", 34],
  ["CC(C)C[C@@H]1NC(=O)[C@H](Cc2ccccc2)N(C)C(=O)[C@H](Cc2ccccc2)N(C)C(=O)[C@H](CC(C)C)NC(=O)[C@H](C)N(C)C(=O)[C@H]([C@@H](C)O)NC(=O)[C@H](C)N(C)C(=O)C[C@@H](C(=O)N2CCCCC2)NC(=O)[C@H](CC(C)C)N(C)C1=O [DP-125] ([NMeA]T[NMeA]L[NMeF][NMeF]L[NMeL]D-Piperidide; lactam N-9)", "microsomal CLint at 1 uM", 189]
]}

Next up:
## Task So what does the record say about microsomal CLint at 1 uM for CC(C)C[C@@H]1NC(=O)[C@H](C)NC(=O)[C@H]([C@@H](C)O)NC(=O)[C@H](CC(C)C)NC(=O)[C@H](CC(C)C)NC(=O)[C@H](C(C)C)NC(=O)CCN(C)C(=O)C[C@@H](C(=O)N2CCCCC2)NC(=O)[C@H](CC(C)C)NC(=O)[C@H](Cc2ccccc2)NC(=O)[C@H](CC(C)C)NC1=O [DP-514] ([NMeβAla]VLLTALLFLD-Piperidide; lactam N-11) ?
## Result 103
